The measured values listed here are drawn from paper PMC10716780.

# target_or_system: UniProt P05108
# assay_notes: Single-turnover kinetics of P450 11A1 with [1,2-3H]-cholesterol (radio-HPLC)
# Type: biochemical
# Set-up: M A S T R S P R P F N E I P S P G D N; Met-Ala (N-terminal start residues in place of the transit peptide and Ile40) (N); made in house; host or cells: E. coli (P450 11A1 in C41(DE3); Adx and AdR in E. coli)
# study_conditions: 10-fold excess (high) Adx, time 0.25 s
# Method: In this reaction, a 5 μM complex of P450 11A1 and 4.5 μM cholesterol was assembled, and Adx was added at either equimolar (low, 5 μM) or 10-fold excess (high, 50 μM) concentrations (along with 10 μM AdR). The complex was diluted 2-fold (with 5 mM NADPH) in the apparatus to initiate the reaction, which was quenched at variable times. The products of the reaction were extracted and quantified by radio-HPLC. […] (The analysis of kinetic modeling is described below.) […]
value_type: concentration in single-turnover reaction (µM)
Numbers only, in µM.

Consider the worked cases shown below.
molecule	recorded_result
CC(C)CC[C@@H](O)[C@@H](C)[C@H]1CC[C@H]2[C@@H]3CC=C4C[C@@H](O)CC[C@]4(C)[C@H]3CC[C@]12C [22R-OH Chol, 22R-hydroxycholesterol]	0.1665
CC(=O)[C@H]1CC[C@H]2[C@@H]3CC=C4C[C@@H](O)CC[C@]4(C)[C@H]3CC[C@]12C [Pregnenolone]	0
CC(C)CCC[C@@H](C)[C@H]1CC[C@H]2[C@@H]3CC=C4C[C@@H](O)CC[C@]4(C)[C@H]3CC[C@]12C [Cholesterol]	4.334

Let's switch to this molecule now.
Look at this molecule and give its reported concentration in single-turnover reaction. CC(C)CC[C@@H](O)[C@](C)(O)[C@H]1CC[C@H]2[C@@H]3CC=C4C[C@@H](O)CC[C@]4(C)[C@H]3CC[C@]12C [20R,22R-(OH)2 Chol, (20R,22R)-Cholest-5-ene-3β,20,22-triol]
0

---

For each entry below, report its concentration in single-turnover reaction value.
# target_or_system: human P450 11A1 (Homo sapiens, UniProt P05108)
# assay_notes: Single-turnover kinetics of P450 11A1 with [1,2-3H]-cholesterol (radio-HPLC)
# Type: biochemical
# Set-up: M A S T R S P R P F N E I P S P G D N; Met-Ala (N-terminal start residues in place of the transit peptide and Ile40) (N); made in house; host or cells: E. coli (P450 11A1 in C41(DE3); Adx and AdR in E. coli)
# study_conditions: 10-fold excess (high) Adx, time 90 s

compound	recorded_result
CC(C)CC[C@@H](O)[C@](C)(O)[C@H]1CC[C@H]2[C@@H]3CC=C4C[C@@H](O)CC[C@]4(C)[C@H]3CC[C@]12C [20R,22R-(OH)2 Chol, (20R,22R)-Cholest-5-ene-3β,20,22-triol]	0 µM
CC(=O)[C@H]1CC[C@H]2[C@@H]3CC=C4C[C@@H](O)CC[C@]4(C)[C@H]3CC[C@]12C	4.189 µM
CC(C)CC[C@@H](O)[C@@H](C)[C@H]1CC[C@H]2[C@@H]3CC=C4C[C@@H](O)CC[C@]4(C)[C@H]3CC[C@]12C [22R-OH Chol, 22R-hydroxycholesterol]	0.05063 µM

Find the recorded concentration in single-turnover reaction belonging to CC(C)CCC[C@@H](C)[C@H]1CC[C@H]2[C@@H]3CC=C4C[C@@H](O)CC[C@]4(C)[C@H]3CC[C@]12C and report it.
0.26 µM

---

# target_or_system: human P450 11A1 (Homo sapiens)
# assay_notes: Single-turnover kinetics of P450 11A1 with [1,2-3H]-cholesterol (radio-HPLC)
# Format: biochemical
# Parameters: M A S T R S P R P F N E I P S P G D N; Met-Ala (N-terminal start residues in place of the transit peptide and Ile40) (N); made in house; host or cells: E. coli (P450 11A1 in C41(DE3); Adx and AdR in E. coli)
# study_conditions: second table, headed 10-fold excess (high) Adx, time 0 s
# Protocol: In this reaction, a 5 μM complex of P450 11A1 and 4.5 μM cholesterol was assembled, and Adx was added at either equimolar (low, 5 μM) or 10-fold excess (high, 50 μM) concentrations (along with 10 μM AdR). The complex was diluted 2-fold (with 5 mM NADPH) in the apparatus to initiate the reaction, which was quenched at variable times. The products of the reaction were extracted and quantified by radio-HPLC. […] (The analysis of kinetic modeling is described below.) […]
Assign concentration in single-turnover reaction to each entry below.
Numbers only, in µM.

As a guide, the following entries are already answered.
compound	unit_descriptor	recorded_result
CC(C)CC[C@@H](O)[C@@H](C)[C@H]1CC[C@H]2[C@@H]3CC=C4C[C@@H](O)CC[C@]4(C)[C@H]3CC[C@]12C [22R-OH Chol, 22R-hydroxycholesterol]	µM	0
CC(=O)[C@H]1CC[C@H]2[C@@H]3CC=C4C[C@@H](O)CC[C@]4(C)[C@H]3CC[C@]12C	µM	0
CC(C)CC[C@@H](O)[C@](C)(O)[C@H]1CC[C@H]2[C@@H]3CC=C4C[C@@H](O)CC[C@]4(C)[C@H]3CC[C@]12C [20R,22R-(OH)2 Chol, (20R,22R)-Cholest-5-ene-3β,20,22-triol]	µM	0

Now for another entry.
concentration in single-turnover reaction of CC(C)CCC[C@@H](C)[C@H]1CC[C@H]2[C@@H]3CC=C4C[C@@H](O)CC[C@]4(C)[C@H]3CC[C@]12C on human P450 11A1 (Homo sapiens)?
4.5

---

# target_or_system: human P450 11A1 (Homo sapiens)
# assay_notes: Single-turnover kinetics of P450 11A1 with [1,2-3H]-cholesterol (radio-HPLC)
# Assay type: biochemical
# Set-up: M A S T R S P R P F N E I P S P G D N; Met-Ala (N-terminal start residues in place of the transit peptide and Ile40) (N); made in house; host or cells: E. coli (P450 11A1 in C41(DE3); Adx and AdR in E. coli)
# study_conditions: 10-fold excess (high) Adx, time 0 s
value_type: concentration in single-turnover reaction (µM)
Give bare numbers, in µM.

Some solved cases for reference:
molecule	recorded_result
CC(C)CCC[C@@H](C)[C@H]1CC[C@H]2[C@@H]3CC=C4C[C@@H](O)CC[C@]4(C)[C@H]3CC[C@]12C	4.5
CC(=O)[C@H]1CC[C@H]2[C@@H]3CC=C4C[C@@H](O)CC[C@]4(C)[C@H]3CC[C@]12C	0
CC(C)CC[C@@H](O)[C@](C)(O)[C@H]1CC[C@H]2[C@@H]3CC=C4C[C@@H](O)CC[C@]4(C)[C@H]3CC[C@]12C [20R,22R-(OH)2 Chol, (20R,22R)-Cholest-5-ene-3β,20,22-triol]	0

Moving on to another molecule below.
What measured concentration in single-turnover reaction goes with CC(C)CC[C@@H](O)[C@@H](C)[C@H]1CC[C@H]2[C@@H]3CC=C4C[C@@H](O)CC[C@]4(C)[C@H]3CC[C@]12C [22R-OH Chol, 22R-hydroxycholesterol] ?
0

---

# target_or_system: human P450 11A1 (Homo sapiens, UniProt P05108)
# Sequence (P05108 41-521 limits assumed): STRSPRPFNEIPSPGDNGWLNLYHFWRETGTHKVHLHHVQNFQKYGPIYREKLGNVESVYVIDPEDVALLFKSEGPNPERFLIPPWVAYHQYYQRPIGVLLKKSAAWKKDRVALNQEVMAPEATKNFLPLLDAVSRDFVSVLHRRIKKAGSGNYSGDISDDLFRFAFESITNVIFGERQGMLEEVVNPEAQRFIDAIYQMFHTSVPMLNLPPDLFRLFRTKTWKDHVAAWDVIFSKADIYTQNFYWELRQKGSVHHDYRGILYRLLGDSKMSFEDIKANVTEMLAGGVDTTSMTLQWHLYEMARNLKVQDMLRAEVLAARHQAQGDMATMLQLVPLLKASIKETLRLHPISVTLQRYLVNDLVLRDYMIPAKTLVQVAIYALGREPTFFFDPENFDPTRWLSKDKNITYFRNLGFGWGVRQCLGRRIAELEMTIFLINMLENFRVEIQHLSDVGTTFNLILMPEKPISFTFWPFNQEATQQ
# Sequence (P00257 59-186 partner): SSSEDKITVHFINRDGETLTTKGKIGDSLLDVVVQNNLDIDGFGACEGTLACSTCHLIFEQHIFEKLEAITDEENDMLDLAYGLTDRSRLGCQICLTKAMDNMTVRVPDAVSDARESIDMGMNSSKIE
# assay_notes: Single-turnover kinetics of P450 11A1 with [1,2-3H]-cholesterol (radio-HPLC)
# Format: biochemical
# Parameters: M A S T R S P R P F N E I P S P G D N; Met-Ala (N-terminal start residues in place of the transit peptide and Ile40) (N); made in house; host or cells: E. coli (P450 11A1 in C41(DE3); Adx and AdR in E. coli)
# study_conditions: second table, headed 10-fold excess (high) Adx, time 10 s
So I've got a bunch of compounds here, and I need their concentration in single-turnover reaction values.
Give bare numbers, in µM.

Study these solved cases before continuing.
compound	recorded_result
CC(C)CC[C@@H](O)[C@@H](C)[C@H]1CC[C@H]2[C@@H]3CC=C4C[C@@H](O)CC[C@]4(C)[C@H]3CC[C@]12C [22R-OH Chol, 22R-hydroxycholesterol]	0.2262
CC(C)CCC[C@@H](C)[C@H]1CC[C@H]2[C@@H]3CC=C4C[C@@H](O)CC[C@]4(C)[C@H]3CC[C@]12C [Cholesterol]	2.794
CC(=O)[C@H]1CC[C@H]2[C@@H]3CC=C4C[C@@H](O)CC[C@]4(C)[C@H]3CC[C@]12C [Pregnenolone]	1.241

Given CC(C)CC[C@@H](O)[C@](C)(O)[C@H]1CC[C@H]2[C@@H]3CC=C4C[C@@H](O)CC[C@]4(C)[C@H]3CC[C@]12C [20R,22R-(OH)2 Chol, (20R,22R)-Cholest-5-ene-3β,20,22-triol] , state its recorded concentration in single-turnover reaction.
0.239
